# assay_summary: TK assay, intravenous mixture dosing: serum concentrations and noncompartmental analysis (sparse data)
# details: female, New Zealand white, rabbit, in vivo, iv, Serum concentration, rabbit 3, 0.35 h
# Description: The experiment was carried out on thirty 10-wk old female New Zealand white rabbits (INRA 1777 line) weighing 2.37±0.14kg . […] Residual concentrations of the compounds, and their possible evolution over time, were determined by sampling six entirely untreated rabbits during the TK study on the day of drug administrations, then 14 d and 28 d later. The volume administered was adjusted to the animal’s body weight (BW) recorded the day before. […]

compound_structure_string: O=C(O)C(F)(F)C(F)(F)C(F)(F)C(F)(F)C(F)(F)C(F)(F)C(F)(F)F
concentration at 0.35 h: 2330 nM

====

# assay_summary: TK assay, oral mixture dosing: serum concentrations and noncompartmental analysis (sparse data)
# details: oral mixture dosing, NCA, n=12; MEHP after oral DEHP
# MRT per entry
outcome_measure: MRT (h)

compound: O=S(=O)(O)C(F)(F)C(F)(F)C(F)(F)C(F)(F)C(F)(F)C(F)(F)C(F)(F)C(F)(F)F
outcome_measure: MRT
assay_result: 1678
--
compound: O=C(O)[C@H]1O[C@@H](Oc2ccc(S(=O)(=O)c3ccc(O)cc3)cc2)[C@H](O)[C@@H](O)[C@@H]1O [BPSG, bisphenol S glucuronide]
outcome_measure: MRT
assay_result: 7.66
--
compound: O=S(=O)(c1ccc(O)cc1)c1ccc(O)cc1
outcome_measure: MRT
assay_result: 6.54
--
compound: CCCCC(CC)COC(=O)c1ccccc1C(=O)O (stereo not shown) [MEHP, mono(2-ethylhexyl)phthalate]
outcome_measure: MRT
assay_result: 12.0

====

# assay_summary: in vivo
# details: female, New Zealand white (INRA 1777 line), rabbit, in vivo, po, Serum concentration
# Description: The experiment was carried out on thirty 10-wk old female New Zealand white rabbits (INRA 1777 line) weighing 2.37±0.14kg . […] Residual concentrations of the compounds, and their possible evolution over time, were determined by sampling six entirely untreated rabbits during the TK study on the day of drug administrations, then 14 d and 28 d later. The volume administered was adjusted to the animal’s body weight (BW) recorded the day before. […]

compound: Clc1c(Cl)c(Cl)c(Cl)c(Cl)c1Cl [HCB, hexachlorobenzene]
concentration at 24 h / nM: 640
//
compound: ClC(Cl)=C(c1ccc(Cl)cc1)c1ccc(Cl)cc1 [pp′DDE]
concentration at 24 h / nM: 720

====

# assay_summary: TK assay, intravenous mixture dosing: serum concentrations and noncompartmental analysis (sparse data)
# details: female, New Zealand white (INRA 1777 line), rabbit, in vivo, iv

compound_structure_string: O=C(O)C(F)(F)C(F)(F)C(F)(F)C(F)(F)C(F)(F)C(F)(F)C(F)(F)F
output_unit: mL/min/kg
clearance: 0.121
//
compound_structure_string: Clc1c(Cl)c(Cl)c(Cl)c(Cl)c1Cl
output_unit: mL/min/kg
clearance: 0.85
//
compound_structure_string: Cl[C@H]1[C@H](Cl)[C@@H](Cl)[C@H](Cl)[C@@H](Cl)[C@@H]1Cl
output_unit: mL/min/kg
clearance: 0.95
//
compound_structure_string: ClC(Cl)=C(c1ccc(Cl)cc1)c1ccc(Cl)cc1
output_unit: mL/min/kg
clearance: 1.83
//
compound_structure_string: Brc1ccc(Oc2ccc(Br)cc2Br)c(Br)c1
output_unit: mL/min/kg
clearance: 3.83
